measurement.description: Induction of cell lysis in ox RBC at 0.188 mM measured at 4 hrs (reference value: 1.8 %)
Format: cell-based, Bos taurus, Erythrocyte
condition.parameters: cattle, ox red blood cells; read-out: Activity
readout.kind: hemolysis at 4 h, 188 µM (%)
Answers are plain numbers, in %.

* CCCCCCCCCCCCNCC(F)(F)F | 7.3

Now for another entry.
Value lookup for hemolysis at 4 h, 188 µM; key = CCCCCCCCCCCCN
100

---

measurement.description: Induction of cell lysis in ox RBC at 0.375 mM measured at 1 hr (reference value: 1.7 %)
Format: cell-based, Bos taurus, Erythrocyte
condition.parameters: cattle, ox red blood cells; read-out: Activity
readout.kind: hemolysis at 1 h, 375 µM (%)
One number for each entry, in %.

* CCCCCCCCCCCCNCC(F)(F)F | 5.2

Can you share its hemolysis at 1 h, 375 µM? I mean this compound: CCCCCCCCCCCCN
100

---

measurement.description: Induction of cell lysis in ox RBC at 0.375 mM measured at 4 hrs (reference value: 1.8 %)
Type: cell-based, Bos taurus, Erythrocyte
condition.parameters: cattle, ox red blood cells; read-out: Activity
readout.kind: hemolysis at 4 h, 375 µM (%)
Give bare numbers, in %.

- CCCCCCCCCCCCN [DODECYLAMINE]: 100

Then this molecule:
Which hemolysis at 4 h, 375 µM is reported for this molecule? CCCCCCCCCCCCNCC(F)(F)F
6.5

---

Provide the reported hemolysis at 1 h, 188 µM of each item.
measurement.description: Induction of cell lysis in ox RBC at 0.188 mM measured at 1 hr (reference value: 1.7 %)
Assay type: cell-based, Bos taurus, Erythrocyte
condition.parameters: cattle, ox red blood cells; read-out: Activity
Answers are plain numbers, in %.

- CCCCCCCCCCCCN: 100

Okay, next one:
Item CCCCCCCCCCCCNCC(F)(F)F has what recorded hemolysis at 1 h, 188 µM?
4.2

---

measurement.description: physchem
Description: Dissociation constant, pKa of the compound
So basically: pKa at 6 or higher? That is condition met. Lower than 6? That is condition not met.

Answered examples (7):
- CCCCCCCCCCCCNCC(F)(F)F: condition not met
- CCCCCCCCCCCCCCCCNCC(F)(F)F: condition not met
- CCCCCCCCCCCCCCCCCCNCC(F)(F)F: condition not met
- CCCCCCCCCCCCCc1ccccn1: condition not met
- CCCCCCCCCn1ccnc1: condition met
- CCCCCCCCCCCCN1CCOCC1: condition met
- Cn1ccnc1 [1-METHYLIMIDAZOLE]: condition met

// switching to the query molecule
Is pKa for CCCCCCCCCCCCNCC(F)F at or above 6?
condition met

---

measurement.description: physchem
readout.kind: pKa
Give bare numbers.

# example entries with known answers
- CNCC(F)(F)F: 6
- CCCCCCCCCCCCCc1ccncc1: 5.9
- CCCCCCCCNCC(F)(F)F: 5.9

Read the next record carefully.
Reported pKa, molecule Cc1ccncc1 : ____
6
